Give measured % Inhibition for each item. Keep answers brief.
# Test system: P. falciparum stage V gametocytes
# Parameters: BacTiter-Glo ATP luminescence viability of purified stage V gametocytes in 384-well plates, per cent inhibition versus DMSO
# Particulars: 48 h, 5 µM; inhibitor
Out of some 13,000 compounds screened, about 3,200 (25%) showed an effect of 50% or more. This is one part of the list.
Numbers only, in %.

• O=C(NCCCCN1CCC(c2ccc3ccccc3c2)CC1)c1ccc(NC(=O)c2ccc(Cl)cc2)cc1 = -9.216
• COc1ccc(N2CCN(CCCOc3ccc(NC(=O)c4cc(Cl)cc(Cl)c4)cc3)CC2)c(OC)c1 = -23.18
• O=C(NCCCN1CCC(Cc2ccccc2)CC1)c1cc2c(Cl)nc3ccccc3c2s1 = -22.49
• COc1ccc(N2CCN(CCCCNC(=O)c3ccc(NC(=O)c4cccc(Cl)c4)cc3)CC2)c(OC)c1 = 74.19
• CC[C@H]1CN2CC[C@H]1C[C@H]2[C@H](O)c1cc(-c2ccc(F)cc2C)nc2ccc(OC)cc12 = 26.99
• COc1ccc(N2CCN(CCCCNC(=O)c3ccc(NC(=O)c4ccc(Cl)c(Cl)c4)cc3)CC2)c(OC)c1 = 58.71
• CCCCCC(=O)NCC(NCCCNc1cc(=O)c2ccccc2[nH]1)c1cc(Br)cc(Br)c1 (stereo not drawn) = 24.17
• COc1ccc(N2CCN(CCCCNCc3ccc(NC(=O)c4cc(Cl)cc(Cl)c4)cc3)CC2)c(OC)c1 = 99.96

Dear reader, for each entry below, please note its % Inhibition.
1. Cn1c(=O)c2cc(C(=O)NCCCN3CCCCCC3)sc2c2ccccc21
2. O=C(Nc1cccc(-c2cccc(-c3nc4ccccc4[nH]3)c2)c1)Nc1ccc(Cl)c(Cl)c1
3. C=C[C@H]1CN2CC[C@@H]1C[C@H]2[C@H](O)c1cc(-c2ccc(F)cc2)nc2ccc(OC)cc12
4. CCc1cc(COc2ccc(CNCCC(C)C)cc2I)c(OCc2ccccc2)c(COc2ccc(CNCCC(C)C)cc2I)c1
5. CC[C@H]1CN2CC[C@H]1C[C@H]2[C@H](O)c1cc(-c2ccc(F)cc2)nc2ccc(OC)cc12
6. Cc1ccc2nc(N(CCCn3ccnc3)C(=O)C=Cc3cccs3)sc2c1
7. CCOC(=O)c1ccc(-n2c(C)cc(C=C3SC(=Nc4ccccc4)N(C4CCCC4)C3=O)c2C)cc1
8. OC(CNc1ccnc(Nc2cccc(Cl)c2)n1)c1ccccc1C(F)(F)F (stereo not drawn)

[59.14, -27.25, 31.93, 104.7, 81.45, 1.025, -3.505, -37.8]

# map each compound to its % Inhibition
1. O=C(NCCCCN1CCC(c2cccc3ccccc23)CC1)c1ccc(NC(=O)c2ccc(Cl)cc2)cc1
2. Cc1[nH]c(C)c(-c2ccc(Sc3ccc(Cl)cc3)cc2)c(=O)c1Br
3. O=C(NCCCCN1CCC(c2ccc3ccccc3c2O)CC1)c1ccc(-c2ccc(Cl)cc2)cc1
4. CC[C@H]1CN2CC[C@@H]1C[C@H]2[C@H](O)c1cc(-c2cc(Cl)cc(Cl)c2)nc2ccc(OC)cc12
5. Cc1nc2ccc3ccc(CNc4ccc(C(=O)N[C@@H](CCC(=O)O)C(=O)O)cc4)cc3c2c(=O)[nH]1
6. C=C[C@H]1CN2CC[C@H]1C[C@H]2[C@H](O)c1cc(-c2ccc(Cl)cc2)nc2ccc(OC)cc12

1: -11.24; 2: 66.05; 3: 108.9; 4: 45.7; 5: 7.462; 6: 109.5

* * *

# System: P. falciparum stage V gametocytes
# Parameters: BacTiter-Glo ATP luminescence viability of purified stage V gametocytes in 384-well plates, per cent inhibition versus DMSO
# Particulars: 48 h, 5 µM; inhibitor
Among all 13,000 compounds or so, about 3,200 (25%) showed an effect of 50% or more. The list shows a part of the results.
Endpoint label: % Inhibition (%)
Give bare numbers, in %.

• Cc1ccc(O)cc1Nc1ccnc2ccc(-c3cccc(CN(C)C)c3)cc12 = 38.94
• COc1ccc(CCNCc2ccc3nc(N)cc(C)c3c2)cc1 = 96.45

Give one value of % Inhibition per listed compound.
1. Cc1cc(N)nc2ccc(-c3ccc(CN)cc3)cc12
2. COc1ccc(CCNCc2ccc3c(C)cc(N)nc3c2)cc1
3. Cc1cc(N)nc2ccc(-c3cccc(CN)c3)cc12
4. O=C(Nc1ccc(OC2CCN(Cc3ccsc3)CC2)c(Cl)c1)c1ccc(F)cc1
5. CCNc1cc(C)nc(Nc2ccc(NC(=O)c3cccs3)cc2)n1
6. CCC1(C)CC(CCNCc2ccccc2O)(c2ccccc2OC)CCO1 (stereo not drawn)
7. Cc1ccc(Cc2c(N)nc3nc(N)nc(N)c3c2C)cc1

1. 97.26
2. 41.14
3. 92.85
4. -4.957
5. -23.08
6. 19.87
7. 9.056

* * *

Task for the reader: assign each of the following compounds its reported % Inhibition.
# Tested on: P. falciparum stage V gametocytes
# Design: BacTiter-Glo ATP luminescence viability of purified stage V gametocytes in 384-well plates, per cent inhibition versus DMSO
# Particulars: 48 h, 5 µM; inhibitor
In all, about 13,000 compounds went through this assay and about 3,200 (25%) showed an effect of 50% or more. The list shows a part of the results.

• Nc1nc(N)c2cc(N(Cc3ccccc3)Cc3ccccc3)ccc2n1 = -9.254%
• COc1ccc(-c2cnc3ccc(NCc4ccc(S(N)(=O)=O)cc4)nn23)cn1 = 73.26%
• O=C(/C=C/c1ccc(Cl)c(Cl)c1)NCCCCCN1CCC(NC(=S)Nc2cccc(Cl)c2)CC1 = -1.091%
• O=C(/C=C/c1ccc(Cl)c(Cl)c1)NCCCCCN1CCC(NC(=O)Nc2cc(Cl)cc(Cl)c2)CC1 = -63.17%
• O=C(C=Cc1ccc(Cl)c(Cl)c1)NCCCCCN1CCC(CCCNC(=O)C2CC2c2ccccc2)CC1 (stereo not drawn) = -16.95%

Respectfully, I request % Inhibition for each entry included below.
1. C=CCOC(=O)N1CCC(CNCc2ccc(-c3cccc(-c4nc5cc(F)ccc5[nH]4)c3)cc2)C1.O=C(O)C(F)(F)F (stereo not drawn)
2. Cc1cccc2nc(-c3ccc(-c4cccc(CNC(C)C)c4)s3)[nH]c12.O=C(O)C(F)(F)F
3. CNc1ccc(CNCc2cccc(-c3ccc(-c4nc5ccccc5[nH]4)s3)c2)cc1.O=C(O)C(F)(F)F

["2.158%", "8.329%", "-37.37%"]

Consider the following items and state reported % Inhibition for each.
1. C=CCOC(=O)N1CCC(CNCc2ccc(-c3cccc(-c4nc5ccccc5[nH]4)c3)cc2)C1.O=C(O)C(F)(F)F (stereo not drawn)
2. O=C(/C=C/c1ccc(Cl)c(Cl)c1)NCCCCCN1CCC(NC(=O)Nc2cccc(Cl)c2)CC1
3. CNc1ccc(CNCc2cccc(-c3ccc(-c4nc5cccc(C)c5[nH]4)s3)c2)cc1.O=C(O)C(F)(F)F
4. Cc1noc(C)c1-c1cccc(CNCc2cccc(-c3ccc(-c4nc5cccc(C)c5[nH]4)s3)c2)c1.O=C(O)C(F)(F)F
5. COc1ccc(S(=O)(=O)NCCC2CCN(CCCCCNC(=O)C=Cc3ccc(Cl)c(Cl)c3)CC2)cc1

89.86%
59.36%
78.71%
-9.203%
28.62%

Would you mind listing % Inhibition for each of the following compounds?
1. O=C(Nc1ccc(Cl)cc1)Nc1cccc(-c2cccc(-c3nc4ccc(C(F)(F)F)cc4[nH]3)c2)c1
2. NS(=O)(=O)c1ccc(CNc2ccc3ncc(-c4ccc(Cl)cc4)n3n2)cc1
3. O=C(/C=C/c1ccc(Cl)c(Cl)c1)NCCCCCN1CCC(NC(=S)Nc2ccc(Cl)c(Cl)c2)CC1
4. COc1ccc(CNCc2cccc(-c3ccc(-c4nc5cccc(C)c5[nH]4)s3)c2)cc1.O=C(O)C(F)(F)F
5. Cc1ccccc1C1CCN(C2CCC(NC(=O)/C=C/c3ccc(C(F)(F)F)cc3)CC2)CC1 (stereo not drawn)
6. COc1ccc2c(ccc3c2ncc2c(=O)n(-c4ccccc4)[nH]c23)c1
7. CCOC(=O)c1ccc(NC(=O)Nc2cccc(-c3ccc(-c4nc5ccc(C(F)(F)F)cc5[nH]4)cc3)c2)cc1
8. O=[N+]([O-])c1ccc(C=NO)nc1

-47.4%
45.42%
-7.54%
2.559%
-86.18%
8.903%
-31.99%
114.3%

I have 7 compounds here; please give me % Inhibition for each one.
1. O=C(C=Cc1ccc(Cl)c(Cl)c1)NCCCCCN1CCC(CCNS(=O)(=O)c2ccc(Br)cc2)CC1
2. Cc1cccc2nc(-c3ccc(-c4cccc(CNCc5ccc(CN)cc5)c4)s3)[nH]c12.O=C(O)C(F)(F)F
3. O=C(NCc1cccc(C(F)(F)F)c1)c1ccc(-c2nc3cc(F)c(F)cc3[nH]2)cc1
4. Cc1cccc2nc(-c3ccc(-c4cccc(CNC5CCN(C)CC5)c4)s3)[nH]c12.O=C(O)C(F)(F)F
5. Nc1ccc(-c2nc3ccc(Oc4ccc5nc(-c6ccc(N)cc6)[nH]c5c4)cc3[nH]2)cc1
6. COC(=O)CCCCOc1c(OC)cc(Cc2cnc(N)nc2N)cc1OC
7. CCCCN(CCCC)Cc1cc(N(C)c2ccc([N+](=O)[O-])cn2)ccc1O

95.36%
115.3%
13.57%
105.5%
-25%
24.77%
-6.258%

Need % Inhibition for each of these compounds.
1. Cc1ccccc1NC(=O)NC1CCN(CCCCCNC(=O)/C=C/c2ccc(Cl)c(Cl)c2)CC1
2. CCOC(=O)NCC(=O)Nc1cccc(-c2cccc(-c3nc4ccc(C(F)(F)F)cc4[nH]3)c2)c1

1. -65.25%
2. -10.81%
